Task for the reader: assign each of the following molecules its reported growth.
Tested on: SF-539 CNS
method description: NCI-60 one-dose screen, 48 h (100 = growth as untreated, 0 = no growth, -100 = all killed)
details: 10 µM unless noted
Compounds without any hit were thinned out: in the full panel of roughly 83,000, 20% have a hit. Active and inactive are the calls of the source. How the source made its calls: active means growth percent below 10; inactive means the rest.

Some molecules with recorded growth:
c1ccc(OCc2nnc(-c3ccc(Oc4ccccc4)cc3)o2)cc1 : 103% (inactive)
Cc1ccc(-c2nc(N3CCN(C(=O)c4ccc(OC(F)(F)F)cc4)CC3)c3ccccc3n2)cc1 : 98.2% (inactive)
CCOC(=O)CCN(C(=O)Nc1ccccc1)C1CCCCC1 : 98.9% (inactive)

Give growth for all molecules that follow.
1. C=CCNc1ccc2c3c(cccc13)C(=O)N(N1C(=O)c3cccc4cccc(c34)C1=O)C2=O
2. NCCCNc1nc2ccc(Cl)cc2c2c(=O)c3cc(F)ccc3sc12

1. 99.8% (inactive)
2. 70.7% (inactive)

Batch of 3 molecules: report growth for each.
1. COc1cccc2c(=O)c3c(sc12)c(NCCCN)nc1ccccc13
2. CCOC(=O)Nc1ccc(-c2nc(-c3cccc(OC)c3)c(-c3ccnc(Br)c3)[nH]2)cc1
3. COc1ccccc1/C=C1\Oc2cc(OCCN3CCC(Cc4ccccc4)CC3)ccc2C1=O

1: 56.1% (inactive); 2: 21.7% (inactive); 3: 93.8% (inactive)

Parameter requested: growth. Apply to each item below.
1. Nc1ccc(Sc2ccc([N+](=O)[O-])c3nonc23)cc1
2. CC/C=C\C[C@@H](O)C/C=C1/C(=O)C=C[C@H]1C/C=C\CCCC(=O)OC
3. O=C(Nc1ccc(Cl)cc1F)c1cc(Cl)ccc1O
4. CN(C)CCCNc1nc2ccccc2c2c(=O)c3cc(F)ccc3sc12
5. CCCSc1nc2ccc(C)cc2cc1/C=[N+](\[O-])c1ccccc1
6. O=C(Nc1ccc(I)cc1F)c1cc(I)ccc1O

91.9% (inactive)
10.4% (inactive)
4.82% (active)
27.3% (inactive)
1.38% (active)
9.88% (active)
